Attribution: patent US20250026827A1

- subject_of_test: T1, human SIRPβ1 domain 1 (D1) Fc fusion (human, UniProt O00241 30-148)
- T1 construct: Made in HEK293/T cells with a heterologous signal peptide; also called Human SIRPβ1 D1-Fc; Human SIRPβ1-Fc; not shown: C-terminal human IgG1 Fc
- test_name: Octet, Fab monovalent
measurement_type: pKd
Here pKd is given on a logarithmic scale as minus log10 of the concentration in mol/L.

[
  {
    "binder": "SB-2-8 Fab (Fab, V domains shown, Fab by papain digestion) VH: QVQLVESGGGVVQPGRSLRLSCAASGFTFLDYGMHWVRQAPGKGLEWVSAISAFAGSTYADSVKGRFTISRDNSKNTLYLQMNSLRAEDTAVYYCARDQTAAAAIWGMDVWGQGTTVTVSS VL: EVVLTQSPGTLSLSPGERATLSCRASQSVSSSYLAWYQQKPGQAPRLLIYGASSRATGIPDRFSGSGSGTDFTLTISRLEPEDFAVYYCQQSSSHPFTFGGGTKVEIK",
    "pKd": 8.30
  }
]

Then there is this binder:
Lookup: Would you mind telling me what pKd value was observed for SB-1-2 Fab (Fab, V domains shown, Fab by papain digestion) VH: QVQLVESGGGVVQPGRSLRLSCAASGFTFGSFGMNWVRQAPGKGLEWVSAITASGGSTFYADSVKGRFTISRDNSKNTLYLQMNSLRAEDTAVYYCAKDFTEVVGWLGMDVWGQGTTVTVSS VL: EIVMTQSPGTLSLSPGERATLSCRASQSVSSSYLAWYQQKPGQAPRLLIYGASSRATGIPDRFSGSGSGTDFTLTISRLEPEDFAVYYCQLLGSSPRTFGGGTKVEIK ?
Found: 7.42
